Origin of values: PubChem BioAssay

Experiment: reduction of polyQ htt aggregates in cells – imaging, exon1htt(103Q)mCFP cells, high-content imaging, primary screen (AID 483);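 also: compound exposure lasted 3 days before fixation; percent of the per-plate median nuclei count of sample wells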
Settings: exon1htt(103Q)mCFP cell line, aggregate imaging, at 2 µM; measured here: cell count, toxicity
Where a SMILES comes first, the peptide text is derived from it. The star is where a group is joined. Boc = CC(C)(C)OC(=O)*
Each entry below lists one item and its recorded nuclei count value.
Please state the number and follow it with the unit.

CC(C)CC(NC(=O)OC(C)(C)C)C(=O)NC(C(=O)N1CCCC1C(N)=O)C(C)C (stereo not drawn) (Boc-Leu-Val-Pro-NH2; configuration not given here): 100%

query: Entry Cc1ccc(S(=O)(=O)N2CCOCC2)cc1C(=O)Nc1nc(-c2cccnc2)cs1 : reported nuclei count = ?
result: 99.3%

query: Let us now turn to COC(=O)C1=C(C)Nc2nnnn2C1c1cccs1 (centres undefined)
result: 107%

query: Now give it for CC(C)Cn1c(N)c(C(=O)COC(=O)c2cc(-c3ccco3)nc3ccccc23)c(=O)n(C)c1=O too.
result: 100%

###

Experiment: endothelial E-selectin expression blockers – imaging, HUVEC, immunofluorescence, MLSMR starter and 10KST1 sets, primary screen (AID 487);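 also: 100% = median nuclei count of all wells on the same plate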
Settings: HUVEC TNFalpha-induced E-selectin immunofluorescence imaging, at 2 µM; measured here: cell number, toxicity
Readout kind: nuclei count
Show the value, then the unit it is measured in.

// solved cases for nuclei count follow
CCOC(=O)/C(C#N)=C(/C)c1ccc(OC)cc1: 120%
Cc1c(C(=O)O)c(-c2ccccc2)nn1-c1ccccc1: 127%
CCC(CC)C(=O)Nc1cccc(C(=O)NCc2ccco2)c1: 138%
CCCS(=O)(=O)N1CCCC(C(=O)NC2CCCC(C)C2C)C1 (stereo unspecified): 105%

query: // nuclei count lookup, key: CCOC(=O)C(NC(=O)c1ccccc1)(Nc1cc(C)on1)C(F)(F)F (stereo unspecified)
result: 88.4%

query: For COc1ccc(C(=O)N2CCSC2=S)cc1OC then?
result: 82.9%

###

Molecular target: Alpha-2C adrenergic receptor (Homo sapiens) (UniProt P18825)
Sequence (P18825 whole entry, looked up): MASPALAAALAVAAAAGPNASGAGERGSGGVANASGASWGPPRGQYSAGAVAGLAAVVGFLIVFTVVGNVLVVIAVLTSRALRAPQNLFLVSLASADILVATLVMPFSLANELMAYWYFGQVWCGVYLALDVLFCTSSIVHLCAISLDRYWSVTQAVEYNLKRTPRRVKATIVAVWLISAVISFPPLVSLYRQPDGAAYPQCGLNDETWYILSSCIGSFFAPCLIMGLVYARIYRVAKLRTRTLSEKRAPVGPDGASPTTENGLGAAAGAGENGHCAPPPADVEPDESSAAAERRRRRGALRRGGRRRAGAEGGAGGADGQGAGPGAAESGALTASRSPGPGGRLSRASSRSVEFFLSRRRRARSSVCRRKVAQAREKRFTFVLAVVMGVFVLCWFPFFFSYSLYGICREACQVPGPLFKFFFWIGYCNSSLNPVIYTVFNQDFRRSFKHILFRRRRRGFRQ
Assay: compounds altering alpha2C-coupled GIRK flux – cell-based, HEK293 alpha2C/GIRK1/2, thallium flux, primary screen (AID 624);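 also: slope of fluorescence ratio to pre-addition baseline per second over 15 to 24 s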
Conditions: thallium flux BTC fluorescence, at 10 µM, actives lie on both sides
Assign condition met whenever slope does not fall below 0.004; assign condition not met whenever it does.

Example entries begin here.
CC1(C)C(=O)Nc2ccccc2N1C(=O)COC(=O)Cn1cnc2ccccc2c1=O: condition met
CC(=NCC1CCNCC1)C1=C(O)CC(C)(C)CC1=O: condition met
Clc1cccc(N2CCN(Cc3nc(-c4ccccc4)no3)CC2)c1: condition met

query: Could you verify whether the entry Cc1ccc(C(c2nnnn2CCC(C)C)N2CCN(C)CC2)cc1 (stereo unspecified) shows slope of no less than 0.004?
result: condition not met

query: What about Cc1cccc2sc(NC(=O)CN(C)S(=O)(=O)c3cccs3)nc12 ?
result: condition not met

query: Consider next the compound CC(=O)N(C)C1(c2nnnn2CCOC(=O)Nc2ccc(Cl)cc2)CCCCC1 in the same way.
result: condition met

query: Another compound to look at: CC1=C(C(=O)NCc2ccco2)C2(CCC(C)CC2)OC1=O (stereo unspecified)
result: condition met

query: // query: CN=Cc1cc(-c2ccccc2)sc1O
result: condition met

query: Queued: Cc1ccc(Nc2nc(N)nc(CN3CCCCCC3)n2)cc1
result: condition met

query: Try the compound O=C1c2ccccc2C(Nc2cccnc2)N1Cc1ccccc1Cl (stereo unspecified)
result: condition met

query: Proceed to CCOP(=O)(c1ccc(N(C)C)cc1)C(O)c1ccccc1OC (stereo unspecified)
result: condition met

###

Collected fluorescence slope values appear next to each entry.
Target: Voltage-gated potassium channel subunit beta-2 (Rattus norvegicus) (UniProt P62483)
Sequence (P62483 whole entry, looked up): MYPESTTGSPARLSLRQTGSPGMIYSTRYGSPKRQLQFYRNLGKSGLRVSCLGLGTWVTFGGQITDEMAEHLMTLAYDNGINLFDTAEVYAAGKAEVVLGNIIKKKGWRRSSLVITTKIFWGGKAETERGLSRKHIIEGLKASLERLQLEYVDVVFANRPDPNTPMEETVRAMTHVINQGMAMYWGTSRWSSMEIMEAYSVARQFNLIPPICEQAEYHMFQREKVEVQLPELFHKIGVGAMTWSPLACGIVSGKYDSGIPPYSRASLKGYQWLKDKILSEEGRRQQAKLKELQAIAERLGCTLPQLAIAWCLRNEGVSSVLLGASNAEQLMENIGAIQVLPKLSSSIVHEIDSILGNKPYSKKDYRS
Assay: inhibitors of rat Kvbeta2 reductase activity – biochemical, NADPH fluorescence, primary screen (AID 622);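 also: slope of raw intensity against log time taken from 70 to 1610 s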
Conditions: recombinant KvBeta, 4-cyanobenzaldehyde reduction, at 10 µM, stronger effect = higher value
Just the number, please, no unit after it.

Examples with answers:
COCCn1nnnc1CN(Cc1cccnc1)Cc1cc2cc(OC)ccc2[nH]c1=O: -0.605
Cc1cnc(NC(=O)CSc2nnc(COc3c(C)cccc3C)o2)s1: -0.537
CCOC(=O)C1CCN(c2c(N3CCCC(C(=O)OCC)C3)c(=O)c2=O)CC1 (stereo not drawn): -0.616
CCCCOCCCNC(=O)c1ccccc1OCC: -0.317
CSC1=C(C#N)C(c2ccc(Cl)cc2)C2=C(CC(C)(C)CC2=O)N1 (stereo not drawn): -0.416
COc1cccc(NC(=O)CSc2nnc(-c3cc(-c4ccccn4)nc4ccccc34)o2)c1: -0.57

query: # returns recorded fluorescence slope (system: Voltage-gated potassium channel subunit beta-2 (Rattus norvegicus) (UniProt P62483)) for O=C(c1ccc(Cl)s1)N1CCN(c2nc3ccccc3s2)CC1
result: -0.392

query: Please do the same for CC(=O)Oc1ccc(-c2ccc(C(=O)O)cc2)cc1 as well.
result: -0.315

###

Assay: endothelial E-selectin expression blockers – imaging, HUVEC, immunofluorescence, MLSMR starter and 10KST1 sets, primary screen (AID 487);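 also: 100% = median nuclei count of all wells on the same plate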
Conditions: HUVEC TNFalpha-induced E-selectin immunofluorescence imaging, at 2 µM; measured here: cell number, toxicity
Readout kind: nuclei count (%)
Quick reminder: number only, in %, skip the unit.

As a guide, the following entries are already answered.
CCCCOC(=O)CN1C(=O)c2ccc(C(=O)OCCCC)cc2C1=O: 88.2
O=C1CC(c2cccc(Cl)c2)Cc2nc(N3CCN(c4ccccc4)CC3)ncc21 (stereo unspecified): 140

query: // returns reported nuclei count for input CCOC(=O)c1ccc(NS(=O)(=O)c2ccc3c(c2)oc(=O)n3C)cc1
result: 107

query: Record: O=C(Nc1nc(-c2ccccn2)cs1)C1CC1
result: 115

query: Try this compound too: O=C(NC12CC3CC(CC(C3)C1)C2)c1cncc(O)c1
result: 128

query: Another compound to look at: CCOC(=O)C1=C(C)NC(C)=C(C(=O)OCC)C1c1cc(N)ccc1OC(F)F
result: 96.5

query: And CC(=O)Nc1c(-c2ccc(F)cc2)nc2ccccn12 ?
result: 88

query: Then this compound: Cc1ccc(C(=O)CSc2n[nH]c(-c3ccco3)n2)cc1C
result: 106

query: And the next one, CCOc1ccc(NC(=O)CC2NCCNC2=O)cc1 (stereo unspecified) ?
result: 99.2

query: Further, for CCc1nc(N)c(C#N)c(-c2ccc(OC)c(OC)c2)c1C ?
result: 111

query: How about COc1ccc(NC(=O)CCc2nc(-c3ccccc3F)no2)cc1 ?
result: 115

###

Test: blockers of RIG-like receptor reporter activation – cell-based, Sendai virus stimulus, luciferase, 10K MLSCN set, TLR/RLR signaling modifier project, primary screen (AID 602276);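 also: firefly luciferase from ISG56 promoter only with Renilla not read in this screen; 0% = Sendai virus plus DMSO and 100% = medium plus DMSO without virus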
Details: HEK293 RL24 IRF3 luciferase reporter, at 10 µM, stronger effect = higher value
Readout kind: inhibition (%)
Please give a number only; it is taken to be in %.

Previously resolved entries follow.
Cc1cc(C(=O)Nc2ccccc2C#N)n(-c2ccccc2)n1: -2.18
CS(=O)(=O)c1ccc2nc(NC(=O)C3C4C=CC(C4)C3C(=O)O)sc2c1 (stereo unspecified): 1.15

Kindly consider the entry below.
query: What does the data say about its inhibition? Entry: COc1ccccc1OCCOCCn1cnc2ccccc2c1=O
result: 10.3

###

Molecular target: Voltage-gated potassium channel subunit beta-2 (Rattus norvegicus) (UniProt P62483)
Test: enhancers of rat Kvbeta2 NADPH turnover – biochemical, NADPH fluorescence, primary screen (AID 623);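 also: fluorescence intensity change per second fitted from 20 to 320 s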
Settings: Recombinant KvBeta, NADPH fluorescence decrease slope, 10 min; at 10 µM; stronger effect = lower value
Property: NADPH fluorescence slope; scope: individual compounds
Format: numeric value only, no unit, no commentary.

Some compounds with known NADPH fluorescence slope results, for comparison:
CCOc1ccc(NC(=O)CSc2nccn2C)cc1: 1e-05
O=C(NCC(=O)N1CCC(N2CCCCC2)CC1)C1CCCCC1: -0.000128
COc1ccc2cc3cc(C(=O)NCC4CCCO4)oc3nc2c1 (stereo unspecified): -1.4e-06
COc1cccc(CN2CCN(C(=O)CC(C)C)CC2)c1: 2.2e-06
Cc1nc2c(-c3ccccc3)c(C)nn2c(C)c1CCC(=O)O: -2.4e-05

query: Quick check: NADPH fluorescence slope of CN(C(=O)Cn1c(=O)n(CCCCC(=O)NC2CCCC2)c(=O)c2ccccc21)C1CCCCC1 ?
result: 1.3e-07

query: Follow-up item: O=C(NCC(c1cccnc1)N1CCN(c2ccc(F)cc2)CC1)c1ccc(F)cc1 (stereo unspecified)
result: -4.6e-05

query: Same thing, different compound: CS(=O)(=O)N1CCCC(C(=O)NCCCN2CCC(Cc3ccccc3)CC2)C1 (stereo unspecified)
result: 2e-05

query: What do you get for Cc1nc2ccc(Br)cn2c1NC(C)(C)C ?
result: -2.1e-05

query: # repeat for COCCn1nnnc1CN1CCC(Cc2ccccc2)CC1
result: -6.1e-05

query: Do the same for Cc1nn(C)c(C)c1NC(=O)CCSc1nc(-c2ccco2)cc(C(F)(F)F)n1 please
result: -6.1e-05
